- Assay notes: Effect of NaTC (bile salt) concentration on solubility
- Type: physicochemical
- Measurement setup: medium with 0 mM NaTC, 37 °C, pH 5.5, fassgf or other biorelevant, thermodynamic from solid, NaTC 0 mM, pH 5.5; read-out: Solubility at Fasted state
Quantity measured: solubility at 2 h (µg/mL)

Sample smiles | Quantity measured | Number
Cc1ccc(Nc2nccc(N(C)c3ccc4c(C)n(C)nc4c3)n2)cc1S(N)(=O)=O | solubility at 2 h | 0.36

* * *

- Assay notes: Effect of NaTC (bile salt) concentration on solubility
- Type: physicochemical
- Measurement setup: biorelevant medium with sodium taurocholate (NaTC), 37 °C, pH 5.5, fassgf or other biorelevant, thermodynamic from solid, NaTC 30 mM, pH 5.5; read-out: Solubility at Fasted state
Quantity measured: solubility at 2 h (µg/mL)

Sample smiles | Number
Cc1ccc(Nc2nccc(N(C)c3ccc4c(C)n(C)nc4c3)n2)cc1S(N)(=O)=O | 27.9

* * *

- Assay notes: Equilibrium solubility in pH buffers and biorelevant media
- Type: physicochemical
- Measurement setup: pH 3; FEDGAS-PH3.0; read-out: Solubility (mean ± SD) at fed state
Quantity measured: solubility at 2 h (µg/mL)

Sample smiles | Value units | Number
Cc1ccc(Nc2nccc(N(C)c3ccc4c(C)n(C)nc4c3)n2)cc1S(N)(=O)=O | µg/mL | 323

* * *

- Assay notes: Equilibrium solubility in pH buffers and biorelevant media
- Assay type: physicochemical
- Measurement setup: phosphate buffer, 37 °C, pH 7.5, aqueous buffer, thermodynamic from solid; PH7.5; read-out: Solubility (mean ± SD) at fasted state

Sample smiles | solubility at 2 h
Cc1ccc(Nc2nccc(N(C)c3ccc4c(C)n(C)nc4c3)n2)cc1S(N)(=O)=O | < 0.27 µg/mL

* * *

- Assay notes: Equilibrium solubility in pH buffers and biorelevant media
- Type: physicochemical
- Measurement setup: pH 4.9; FEDGAS-PH4.9; read-out: Solubility (mean ± SD) at fed state

Compound | solubility at 2 h, µg/mL
Cc1ccc(Nc2nccc(N(C)c3ccc4c(C)n(C)nc4c3)n2)cc1S(N)(=O)=O [PAZ, pazopanib] | 40

* * *

- Assay notes: Equilibrium solubility in pH buffers and biorelevant media
- Type: physicochemical
- Measurement setup: phosphate buffer, 37 °C, pH 3, aqueous buffer, thermodynamic from solid; PH3.0; read-out: Solubility (mean ± SD) at fasted state
Quantity measured: solubility at 2 h

Molecule | Result
Cc1ccc(Nc2nccc(N(C)c3ccc4c(C)n(C)nc4c3)n2)cc1S(N)(=O)=O [PAZ, pazopanib] | 391 µg/mL

* * *

- Assay notes: Equilibrium solubility in pH buffers and biorelevant media
- Type: physicochemical
- Measurement setup: phosphate buffer, 37 °C, pH 7, aqueous buffer, thermodynamic from solid; PH7.0; read-out: Solubility (mean ± SD) at fasted state
- Protocol: After incubation of 2 h, 1 ml aliquot of each sample was withdrawn from the tube. The samples were filtered using a 0.22 μm filter, the first 0.8 ml was discarded, and the remaining 0.2 ml was analyzed by the HPLC. The specific experiments containing different conditions are as follows: • i) Solubility testing in simulated fasted and fed media Specifically, solubility media were prepared using different phosphate buffers. […]

Compound | solubility at 2 h
Cc1ccc(Nc2nccc(N(C)c3ccc4c(C)n(C)nc4c3)n2)cc1S(N)(=O)=O [PAZ, pazopanib] | < 0.27 µg/mL

* * *

- Assay notes: Equilibrium solubility in pH buffers and biorelevant media
- Assay type: physicochemical
- Measurement setup: phosphate buffer, 37 °C, pH 4.5, aqueous buffer, thermodynamic from solid; PH4.5; read-out: Solubility (mean ± SD) at fasted state

Sample smiles | Value units | solubility at 2 h
Cc1ccc(Nc2nccc(N(C)c3ccc4c(C)n(C)nc4c3)n2)cc1S(N)(=O)=O | µg/mL | 68.3

* * *

- Assay notes: Effect of NaTC (bile salt) concentration on solubility
- Format: physicochemical
- Measurement setup: biorelevant medium with sodium taurocholate (NaTC), 37 °C, pH 5.5, fassgf or other biorelevant, thermodynamic from solid, NaTC 3.75 mM, pH 5.5; read-out: Solubility at Fasted state

Sample smiles | solubility at 2 h [µg/mL]
Cc1ccc(Nc2nccc(N(C)c3ccc4c(C)n(C)nc4c3)n2)cc1S(N)(=O)=O | 1.51

* * *

- Assay notes: Effect of NaTC (bile salt) concentration on solubility
- Assay type: physicochemical
- Measurement setup: biorelevant medium with sodium taurocholate (NaTC), pH 5.5, NaTC 7.5 mM, pH 5.5; read-out: Solubility at Fasted state

Compound | Value units | solubility at 2 h
Cc1ccc(Nc2nccc(N(C)c3ccc4c(C)n(C)nc4c3)n2)cc1S(N)(=O)=O [PAZ, pazopanib] | µg/mL | 3.02

Values were extracted from paper PMC9510668.
